Reference source for all entries: patent US20030124585A1

- Study System: Marmoset Type II GnRH-R (Callithrix jacchus, UniProt Q95MG6)
- Construct: Full length marmoset Type II GnRH receptor was produced by PCR; expressed in transfected cells; host or cells: COS-7 cells, transient transfection (Superfect), plasmid pcDNA3.1+
- Sequence (Q95MG6 whole entry): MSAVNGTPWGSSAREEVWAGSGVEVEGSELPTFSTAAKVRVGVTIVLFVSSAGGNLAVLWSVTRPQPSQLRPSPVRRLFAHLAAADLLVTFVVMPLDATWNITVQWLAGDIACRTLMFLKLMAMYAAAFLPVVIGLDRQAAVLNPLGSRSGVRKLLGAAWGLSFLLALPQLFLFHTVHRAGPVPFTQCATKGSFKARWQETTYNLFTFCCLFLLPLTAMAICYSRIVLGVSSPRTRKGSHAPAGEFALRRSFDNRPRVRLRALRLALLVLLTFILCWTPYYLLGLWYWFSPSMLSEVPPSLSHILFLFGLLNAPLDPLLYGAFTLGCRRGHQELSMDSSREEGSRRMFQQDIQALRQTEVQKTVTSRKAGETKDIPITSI
- Test Protocol: Total inositol phosphate production in transfected COS-7 cells
- Format: cell-based
- Conditions Used: FIG. 5; COS-7 cells; s.e.m., n=2; read-out: EC50, total inositol phosphate production
- Method: Cell culture and transfection. COS-7 cells were cultured as previously described (20, 21). Transient transfections of COS-7 cells with human Type I GnRH receptor or marmoset Type II GnRH receptor, along with myc-tagged ERK2, JNK and p38α constructs were performed using Superfect (Qiagen) according to the manufacturer's protocol. All assays described were performed 48 h post transfection. Receptor binding and inositol phosphate production.
Square brackets hold non-standard residues; d marks the D form. Peptide text beside a SMILES is read from it. pGlu = O=C1CC[C@@H](C(=O)O)N1
Assay Metric: pEC50
Bear in mind: pEC50 is minus log10 of a mol/L concentration; give just that figure.

Reported pEC50 for N=C(N)NCCC[C@@H](NC(=O)[C@H](Cc1c[nH]cn1)NC(=O)[C@H](CO)NC(=O)[C@H](Cc1c[nH]c2ccccc12)NC(=O)[C@H](Cc1c[nH]cn1)NC(=O)[C@@H]1CCC(=O)N1)C(=O)N[C@@H](Cc1c[nH]c2ccccc12)C(=O)N[C@@H](Cc1ccc(O)cc1)C(=O)N1CCC[C@H]1C(=O)NCC(N)=O [[D-Arg^6] GnRH II, [D-Arg^6]GnRH II] ([pGlu]HWSH[dR]WYPG-NH2; C-terminus assumed) : what is it?
8.96
